assay: Toxicity liver stage against HepG2, at 10uM; type: cell-based; parameters: test concentration 10 uM, cell line HepG2-A16-CD81EGFP; settings: human, HepG2-A16-CD81EGFP cells; read-out: INHIBITION
VALUE_TYPE: cytotoxicity at 10 µM (%)
Answers are plain numbers, in %.

Examples from the recorded data:
COc1ccc2[nH]cc(C3CCN(CCC(N)=O)CC3)c2c1 = -1.22
Cn1cccc1CN1CCC2(CCCN(C(=O)c3cccnc3)C2)CC1 = -147
NC(=O)c1ccc(N2CCCCC2)c(NC(=O)c2ccc(F)cc2Cl)c1 = -4.2
O=C(CSC1CCc2ccccc2NC1=O)NCCO (stereo not drawn) = 5.52
CCSCC(C)NCc1nncn1C1CCCCC1 (stereo not drawn) = 15.3

For every item below, please supply its cytotoxicity at 10 µM.
1. O=C(CCn1cccn1)N1CCC(c2nnc(-c3ccccn3)o2)CC1
2. CN(CC(C)(CO)CO)C(=O)Nc1cc(Cl)cc(Cl)c1

Ans.
1: 0.125; 2: 0.0988

For every item below, please supply its cytotoxicity at 10 µM.
1. Cc1ccc(NC(=O)N2CC[C@@H](O)C2)c(-c2nc(C3CC3)no2)c1
2. Cc1cccc(S(=O)(=O)N2C[C@@H]3C[C@H](C(=O)NCC4CC4)[C@H](C2)O3)c1
3. CC(=O)N1CCCC(c2ccc(C(=O)NC3CCCC3)cn2)C1 (stereo not drawn)

Ans.
1. -4.16
2. -2.35
3. 0.692

For every item below, please supply its cytotoxicity at 10 µM.
1. Cc1sc2nc(CCN)nc(N3CCN(S(C)(=O)=O)CC3)c2c1C
2. O=C(NC1CC1)C1CCCN(c2cccc(C(F)(F)F)n2)C1 (stereo not drawn)

Ans.
1: -32; 2: 2.43

For every item below, please supply its cytotoxicity at 10 µM.
1. CO[C@H]1CCN(Cc2ccccn2)[C@@H]2CN(Cc3ccco3)C[C@H]12
2. CCCc1noc(CCC(=O)N2CCCC(c3ccn[nH]3)C2)n1 (stereo not drawn)
3. Cn1cc(C2COC3(CCN(C(=O)c4cccn4C)CC3)C2)cn1 (stereo not drawn)
4. c1cc(CN2CC[C@@H]3CN(c4cncnc4)C[C@@H]3C2)ccn1
5. COc1cc(C2CC(=O)Nc3c2cnn3C)ccc1O (stereo not drawn)

Ans.
1. -7.76
2. 12.2
3. -75.4
4. -116
5. 45.5

For every item below, please supply its cytotoxicity at 10 µM.
1. Cc1cc(C)n(C2CCCN(C(=O)c3cc(C4CC4)on3)C2)n1 (stereo not drawn)
2. Cc1nc(CN2CCN(CC(O)CN3CCOCC3)CC2)oc1C (stereo not drawn)
3. CC(C)NC(=O)N1CCN(CC2CC2)CC2(CNC(=O)C2)C1 (stereo not drawn)
4. Cc1cnn(CC2CCCN2C(=O)Cc2n[nH]c3ccccc23)c1 (stereo not drawn)
5. CN(C)C(=O)[C@H]1C[C@@H]2CCN(C3CCOCC3)C[C@@H]2O1
6. Cn1ccnc1C(O)c1ccccc1N1CCN(Cc2ccsc2)CC1 (stereo not drawn)

Ans.
1. -1.11
2. 5.92
3. 2.52
4. -9.16
5. -3.01
6. 3.19

###

test: Toxicity liver stage against HepG2, at 10uM; format: cell-based; parameters: test concentration 10 uM, cell line HepG2-A16-CD81EGFP; conditions: human, HepG2-A16-CD81EGFP cells; read-out: INHIBITION
I'd be grateful if you could share measured cytotoxicity at 10 µM for these entries.
Answers are plain numbers, in %.

Examples from the recorded data:
Cc1cc(=O)n(CC(=O)Nc2cccc(Cl)c2)nc1C = -6.84
COCCOCCNC(=O)N1CCN(c2ccccc2C#N)CC1 = 6.39
NC(=O)c1cc(C2CCCN(C(=O)CCc3ccccn3)C2)n[nH]1 (configuration not stated) = -8.47

For every item below, please supply its cytotoxicity at 10 µM.
1. CC(=O)N[C@H]1CCN(C(=O)c2cc(Cn3cnc4ccccc43)[nH]n2)C1
2. O=C(Cc1ccc(S(=O)(=O)C(F)F)cc1)N1CCC1
3. CN(Cc1cccc(C(N)=O)c1)CC1CCCN1c1cccnn1 (configuration not stated)
4. Cc1[nH]ncc1C(=O)N1CCCC(n2cncn2)C1 (configuration not stated)

Ans.
1: -1.91; 2: -17; 3: -9.75; 4: 7.75

###

experiment: Toxicity liver stage against HepG2, at 10uM; type: cell-based; parameters: test concentration 10 uM, cell line HepG2-A16-CD81EGFP; settings: human, HepG2-A16-CD81EGFP cells; read-out: INHIBITION
I'd be grateful if you could share measured cytotoxicity at 10 µM for these entries.
One number for each entry, in %.

Examples from the recorded data:
Cc1cc(N2CCC(N(C)C(=O)c3ccccc3)CC2)nc(C)n1 = -4.69
CC(C)n1cnc2ccc(NC(=O)CCCn3cccn3)cc2c1=O = -10.6
CC(=O)N1C[C@H]2CC[C@@H](C1)N(S(=O)(=O)c1cc(F)ccc1C)C2 = 2.91
CCS(=O)(=O)Cc1ccn(-c2cccc(F)c2)n1 = -0.988
Cc1nn(C)c(N(C)C)c1CNCC(O)c1ccccc1 (centres undefined) = -0.989
Nc1nc2nc(C3CCN(C(=O)c4cscn4)C3)ccc2s1 (centres undefined) = -5.72
Cn1cc(C2CCCN2C(=O)CCCOc2ccccc2F)cn1 (centres undefined) = 0.2
O=C(c1cc(=O)[nH][nH]1)N1CCCC2(CCC(=O)N(C3CCCC3)C2)C1 (centres undefined) = 0.988

For every item below, please supply its cytotoxicity at 10 µM.
1. Cc1ccc(C(C)(O)CNC(=O)c2scnc2C)o1 (centres undefined)
2. CNS(=O)(=O)Cc1cccc(CNCc2ccsc2)c1

Ans.
1: -1.42; 2: 11.7

For every item below, please supply its cytotoxicity at 10 µM.
1. COc1ccccc1S(=O)(=O)N1CCC(Oc2cccnn2)CC1
2. CN1CCC(n2nc(Cc3cccc(Cl)c3)nc2Cn2ccnc2)CC1
3. c1ccc2c(OCCN3CCn4c(nnc4C4CC4)C3)cccc2c1
4. COCCC(=O)NCCn1nc(C2CCNC2)c2cccnc21 (centres undefined)
5. COc1c(C2CCCN2C(=O)CCNc2ncccn2)c(C)nn1C (centres undefined)
6. CCCc1nc(C)c(C(=O)NC2CCN(CC(N)=O)CC2)s1
7. CCCc1cc(NC2CCc3nc(C(C)C)nn3C2)n2ncnc2n1 (centres undefined)

Ans.
1: -7.33; 2: 10.8; 3: -3.87; 4: -16.5; 5: -5.1; 6: -6.3; 7: -1.41

###

assay: Toxicity liver stage against HepG2, at 10uM; format: cell-based; design: test concentration 10 uM, cell line HepG2-A16-CD81EGFP; details: human, HepG2-A16-CD81EGFP cells; read-out: INHIBITION
VALUE_TYPE: cytotoxicity at 10 µM (%)
Answers are plain numbers, in %.

Examples from the recorded data:
Cc1ccc(NCc2cncc3c2CCN(Cc2ccccn2)C3)nn1 = -6.4
CC(C)c1nc2cc(NC(=O)Cn3ccc(=O)[nH]c3=O)ccc2o1 = 1.73
Cn1cc(CN2CC[C@H]3O[C@H](C(=O)Nc4cnccn4)CC[C@H]32)cn1 = -135
Cc1ccc(C(C)N(C)Cc2nc3c(cnn3C)c(=O)[nH]2)c(C)c1 (stereo unspecified) = -12.4
CCN(CC)S(=O)(=O)NCC1COc2ccccc2O1 (stereo unspecified) = 0.347
CC1CCc2nn(CCNC(=O)C3CCCC3)c(=O)cc2C1 (stereo unspecified) = 7.71
CCN(C)C(=O)C1(c2ccc(F)cc2F)CCC1 = -7.74
CCOCc1ccc(NC(=O)C(C)C)cc1 = 2.25
CC(=O)N1[C@H](Cn2cncn2)C[C@@H]2CN(Cc3ccncc3)CC[C@@H]21 = 2.24
COc1ccc2nnc(CCC(=O)Nc3nc(C)c(C)s3)n2n1 = -3.18

Next molecule, cytotoxicity at 10 µM to be filled in.
Qu. State the recorded cytotoxicity at 10 µM for this entry: CN(C(=O)COCc1ccccc1)C1CCN(CC2CCOC2)CC1 (stereo unspecified)
Ans. -3.7

###

experiment: Toxicity liver stage against HepG2, at 10uM; assay type: cell-based; design: test concentration 10 uM, cell line HepG2-A16-CD81EGFP; conditions: human, HepG2-A16-CD81EGFP cells; read-out: INHIBITION
I'd be grateful if you could share measured cytotoxicity at 10 µM for these entries.
Numbers only, in %.

Examples from the recorded data:
Cc1cc2[nH]cc(C(=O)N3CCCCC3c3ccc(F)cc3)c(=O)n2n1 (centres undefined) = 4.19
Cc1nnc(C2Cc3ccccc3CN2Cc2ncc(C(C)(C)C)o2)o1 (centres undefined) = 10
CC(C)c1nc(C2CCCN(C(=O)c3ccc4[nH]nnc4c3)C2)no1 (centres undefined) = 7.34
COc1cc(CNCc2ccco2)ccc1OCCO = 3.35
O=C(N1CCCO1)[C@@]12CCO[C@@H]1CCN(Cc1cccs1)C2 = -6.36
Cc1noc(C)c1NC(=O)Cn1cc(Br)ccc1=O = 8.99
COc1ncccc1C(=O)NCC(C)Oc1cccnc1 (centres undefined) = -8.45
COc1cccc(CN2CCCC2c2cncc(Nc3nncs3)n2)c1 (centres undefined) = 4.73
Cc1noc(NC(=O)c2ccc(Br)o2)n1 = -3.75
CCN(CC)C(=O)CS(=O)(=O)c1cc(OC)c(OC)cc1C = -2.58

For every item below, please supply its cytotoxicity at 10 µM.
1. Cc1noc2ncc(C(=O)NCC3CCCOC3)cc12 (centres undefined)
2. CC(C)CN1CCN(S(=O)(=O)c2cn(C)cn2)[C@H]2CS(=O)(=O)C[C@H]21
3. CCCn1nccc1NC(=O)CN1CCCC1Cn1cccn1 (centres undefined)
4. O=C(Cc1ccccc1)N1C[C@@H]2OCCN(CC3CCCO3)[C@@H]2C1 (some centres undefined)
5. O=C(NCCn1ccnc1)N1CCN(c2nccs2)CC1
6. Cc1nc(CC(=O)NCc2csc(N3CCCC3)n2)cs1

Ans.
-8.42
-4.07
-5.47
-3.09
-3.68
-5.26

For every item below, please supply its cytotoxicity at 10 µM.
1. CCc1noc(CN2CCCC(Cn3nc(C)nc3C)C2)n1 (centres undefined)
2. CNC(=O)[C@@H]1C[C@@H](n2cc(-c3ccc(Cl)cc3)nn2)CN1
3. O=S(=O)(c1ccc(Cl)s1)N1CCCC(c2ncc[nH]2)C1 (centres undefined)
4. COC(=O)c1cccn1C1CCN(Cc2cnc3ccccn23)CC1
5. CCCc1nc(C(=O)N2CCN(C(=O)OC)CC2)cs1

Ans.
-6.31
-3.95
6.68
-8.86
-9.85

For every item below, please supply its cytotoxicity at 10 µM.
1. CCO[C@H]1CC[C@H]2[C@H]1OCCN2C(=O)c1nn(C)c2ccccc12
2. CCN1CCC(NC(=O)Cc2csc(C(C)(C)C)n2)CC1
3. CCc1c(C)nc2n(c1=O)CC(C(=O)Nc1nccs1)CS2 (centres undefined)

Ans.
1. 7.28
2. -16.3
3. 1.83
